Target: T1, human PD-1 (human, UniProt Q15116 25-167, limits assumed)
T1 construct: nivolumab is called an anti-human PD-1 antibody; also called hPD-1
T1 sequence (Q15116 25-167 limits assumed): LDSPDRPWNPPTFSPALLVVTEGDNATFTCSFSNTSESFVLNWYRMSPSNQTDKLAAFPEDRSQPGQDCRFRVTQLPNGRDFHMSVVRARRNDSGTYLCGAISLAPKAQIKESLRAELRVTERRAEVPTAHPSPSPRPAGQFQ
Assay: Biacore and cell-based assays, calibrated by wildtype nivolumab binding affinity
reported.endpoint: Kd (nM)
Response body: numeric value in nM, unit text excluded.

Below, 3 binders whose answers are already recorded.
binder	measurement.unit	data.value
anti-PD-1 antibody HC-CDR3(D100R) (antibody, IgG1, V domains shown, heterodimeric IgG1 as the WT antibody) VH: QVQLVESGGGVVQPGRSLRLDCKASGITFSNSGMHWVRQAPGKGLEWVAVIWYDGSKRYYADSVKGRFTISRDNSKNTLFLQMNSLRAEDTAVYYCATNRDYWGQGTLVTVSS VL: EIVLTQSPATLSLSPGERATLSCRASQSVSSYLAWYQQKPGQAPRLLIYDASNRATGIPARFSGSGSGTDFTLTISSLEPEDFAVYYCQQSSNWPRTFGQGTKVEIKR	nM	910
anti-PD-1 antibody HC-CDR3(N99G) (antibody, IgG1, V domains shown, heterodimeric IgG1 as the WT antibody) VH: QVQLVESGGGVVQPGRSLRLDCKASGITFSNSGMHWVRQAPGKGLEWVAVIWYDGSKRYYADSVKGRFTISRDNSKNTLFLQMNSLRAEDTAVYYCATGDDYWGQGTLVTVSS VL: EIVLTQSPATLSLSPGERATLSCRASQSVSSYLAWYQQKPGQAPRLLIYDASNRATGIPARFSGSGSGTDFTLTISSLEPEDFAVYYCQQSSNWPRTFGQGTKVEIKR	nM	2300
anti-PD-1 antibody HC-CDR3(D100G) (antibody, IgG1, V domains shown, heterodimeric IgG1 as the WT antibody) VH: QVQLVESGGGVVQPGRSLRLDCKASGITFSNSGMHWVRQAPGKGLEWVAVIWYDGSKRYYADSVKGRFTISRDNSKNTLFLQMNSLRAEDTAVYYCATNGDYWGQGTLVTVSS VL: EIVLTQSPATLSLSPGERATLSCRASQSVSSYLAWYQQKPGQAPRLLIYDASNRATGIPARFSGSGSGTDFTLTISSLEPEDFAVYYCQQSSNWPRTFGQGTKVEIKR	nM	130

### Prompt // query Kd value for entry anti-PD-1 antibody HC-CDR3(D100N) (antibody, IgG1, V domains shown, heterodimeric IgG1 as the WT antibody) VH: QVQLVESGGGVVQPGRSLRLDCKASGITFSNSGMHWVRQAPGKGLEWVAVIWYDGSKRYYADSVKGRFTISRDNSKNTLFLQMNSLRAEDTAVYYCATNNDYWGQGTLVTVSS VL: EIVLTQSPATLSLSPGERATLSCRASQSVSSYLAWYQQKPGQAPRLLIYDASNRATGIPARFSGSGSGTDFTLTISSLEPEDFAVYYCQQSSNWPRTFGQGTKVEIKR
### Response 25

These data points were gathered from patent US20230167164A1.
